Tested on: Rattus norvegicus
Experiment: Anticonvulsant activity in Sprague-Dawley albino rat assessed as protection against maximal electroshock-induced seizures at 30 mg/kg, po after 1 hr
Type: functional, organism-based
Design: dose 30 mg/kg
Calls of active or inactive are those of the source. No cut-off for these calls is given here.
Select the correct class. Options are y = active, n = inactive and nothing else.

Example cases with answers are listed next.
{"columns": ["compound", "assigned.label"],
 "data": [
  ["CCCC(CCC)COC(=O)NC", "n"],
  ["CC(C)C(COC(N)=O)C(C)C", "n"],
  ["CCCC(COC(N)=O)C(C)CC (racemic)", "n"],
  ["CCC(CC)COC(N)=O", "n"],
  ["CC(C)(C)COC(N)=O", "n"]
]}

Assay outcome for "CCCC(CCC)COC(N)=O" : what was it?
n
